Compiled literature IC50, tested on Tyrosine-protein kinase JAK3 (Homo sapiens, UniProt P52333).

These recorded examples may help you get a feel for the data.
- COMPOUND: "CCC(CC)n1cc(-c2nc(-c3cnn(CC4(CO)COC4)c3)cn3nccc23)cn1"
  ATTRIBUTE_MEASURED: "IC50"
  OBSERVED: "1000 to 10000 nM"
- COMPOUND: "Cc1c(-c2nc(-c3cnn(C)c3)cc3nccn23)cnn1CCC#N"
  ATTRIBUTE_MEASURED: "IC50"
  OBSERVED: "> 1000 nM"
- COMPOUND: "N#Cc1ccc2ncn(-c3ncc4nc(NC5CCCC5)n([C@@H]5CCOc6ccccc65)c4n3)c2c1"
  ATTRIBUTE_MEASURED: "IC50"
  OBSERVED: "< 100 nM"
- COMPOUND: "N#Cc1cccc(S(=O)(=O)N[C@H]2C[C@@H](Nc3c(-c4ncco4)cnc4[nH]ccc34)C2)c1"
  ATTRIBUTE_MEASURED: "IC50"
  OBSERVED: "10 to 100 nM"

Report IC50 for every entry below.
1. CCOC(=O)Cn1cc(Nc2ncc3ccn(C[C@H]4CC[C@H](O)CC4)c3n2)cn1
2. CCN(c1ccccc1CNc1nc(-c2cc(F)c(O)cc2CC(F)(F)F)cc2[nH]nc(C(N)=O)c12)S(=O)(=O)CC
3. Cc1ccc(NC(=O)c2ccc(F)c(C(F)(F)F)c2)cc1-c1ccc2[nH]c3ncncc3c2c1
4. COCCC1(n2cc(-c3nc(-c4cnn(C)c4)cc4nccn34)cn2)CN(S(=O)(=O)C(F)(F)F)C1
5. O=C(NCCS(=O)(=O)N1CCCCC1)c1noc2c1CN(c1ncnc3[nH]ccc13)CC2

< 100 nM
313 nM
500 to 1000 nM
100 to 1000 nM
100 to 500 nM
